- measured_target: HLA-B*44:02
- assay_remarks: IEDB peptide-MHC binding, purified MHC/direct/fluorescence; filed as Kd, often an IC50 or EC50 that approximates it; bounds were set here for any values at or beyond the usual limits of such assays
- details: source organism: Influenza A virus (A/Viet Nam/HN/2004(H5N1))
quantity: Kd

[
  {
    "macromolecule_sequence": "VSPLAVTWW",
    "value_reported": "≥ 20 µM"
  }
]

###

- measured_target: HLA-A*01:01
- assay_remarks: IEDB peptide-MHC binding, purified MHC/direct/fluorescence; filed as Kd, often an IC50 or EC50 that approximates it; bounds were set here for any values at or beyond the usual limits of such assays
- details: source organism: Vibrio parahaemolyticus

[
  {
    "macromolecule_sequence": "DQFSIPIRY",
    "Kd": "≥ 20 µM"
  },
  {
    "macromolecule_sequence": "ISDPAFKVF",
    "Kd": "≥ 20 µM"
  }
]
